Assayed target: recombinant human cGAS (aa147-522) (Homo sapiens, UniProt Q8N884)
Construct: recombinant human cGAS (aa147-522); His6-SUMO (N, cleaved yes)
Sequence (Q8N884 147-522): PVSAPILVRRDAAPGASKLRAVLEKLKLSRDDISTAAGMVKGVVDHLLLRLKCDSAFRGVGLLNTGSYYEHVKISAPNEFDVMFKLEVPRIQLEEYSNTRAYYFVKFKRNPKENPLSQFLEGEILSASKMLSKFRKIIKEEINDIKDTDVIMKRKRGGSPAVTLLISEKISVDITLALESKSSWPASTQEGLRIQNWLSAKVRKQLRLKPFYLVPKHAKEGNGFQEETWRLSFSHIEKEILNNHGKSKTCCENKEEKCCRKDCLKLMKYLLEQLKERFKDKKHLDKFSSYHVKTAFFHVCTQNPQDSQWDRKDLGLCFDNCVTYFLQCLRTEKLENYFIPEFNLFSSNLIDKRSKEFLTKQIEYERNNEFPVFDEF
Assay info: In vitro inhibition assay of cGAS activity (KinaseGlo, ATP consumption)
Condition: Herring testis DNA, 6.6 μM ATP, 0.1 mM GTP, 37° C. 20 minutes
Endpoint name: IC50

Please review the following examples before continuing.
# Smiles, Endpoint name, Recorded measurement
data = [
    ("O=C(O)CCOC[C@@H]1C[C@@H]2C[C@@H]2N1c1cc(-n2cncn2)c2cc(Cl)c(Br)cc2n1", "IC50", "< 2 µM"),
    ("O=C(O)CCOC[C@@H]1CCCN1c1cc(-c2ccnnc2)c2ccc(Cl)c(Cl)c2n1", "IC50", "> 30 µM"),
    ("O=C(O)CCOC[C@@H]1CCCN1c1cc(-c2ncn[nH]2)c2ccc(Br)cc2n1", "IC50", "2 to 30 µM"),
    ("O=C(O)CCOC[C@@H]1CCCN1c1cc(-c2cnn[nH]2)c2ccc(Cl)c(Cl)c2n1", "IC50", "< 2 µM"),
    ("O=C(O)CCOC[C@@H]1CCCN1c1cc(-c2cnoc2)c2ccc(Cl)c(Cl)c2n1", "IC50", "< 2 µM"),
    ("O=C(O)CCOC[C@@H]1CCCN1c1cc(-c2ccncc2)c2ccc(Cl)c(Cl)c2n1", "IC50", "> 30 µM"),
    ("O=C(O)CCOC[C@H]1CCCN1c1cc(-n2cncn2)c2cc(Br)c(Cl)c(Cl)c2n1", "IC50", "< 2 µM"),
    ("O=C(O)CCOC[C@@H]1CCCN1c1cc(-c2cccc(O)c2)c2ccc(Cl)c(Cl)c2n1", "IC50", "> 30 µM"),
    ("O=C(O)CCOC[C@@H]1CCCN1c1cc(-n2cncn2)c2c(Cl)c(Cl)ccc2n1", "IC50", "< 2 µM"),
]

Now look at this entry.
Ask: Please give measured IC50 of the following entry: O=C(O)CCOC[C@@H]1CCCN1c1cc(-c2cocn2)c2ccc(Cl)c(Cl)c2n1
Reply: > 30 µM

====

Assayed target: recombinant human cGAS (aa147-522) (Homo sapiens)
Construct: recombinant human cGAS (aa147-522); His6-SUMO (N, cleaved yes)
Assay info: In vitro inhibition assay of cGAS activity (KinaseGlo, ATP consumption)
Condition: Herring testis DNA, 6.6 μM ATP, 0.1 mM GTP, 37° C. 20 minutes
pIC50: −log10 of the molar value.
Endpoint name: pIC50

Please review the following examples before continuing.
# Smiles, Recorded measurement
records = [
    ("O=C(O)CCOC[C@@H]1CCCN1c1cc(-n2ccnn2)c2ccc(Cl)c(Cl)c2n1", "> 5.70"),
    ("O=C(O)CCOC[C@@H]1CCCN1c1cc(-c2cccc(CO)c2)c2ccc(Cl)c(Cl)c2n1", "< 4.52"),
    ("COC(=O)[C@@H]1[C@@H](O)CCN1c1cc(-n2cncn2)c2cc(Br)c(Cl)c(Cl)c2n1", "> 5.70"),
    ("O=C(O)CCOC[C@@H]1CCCN1c1cc(-c2cncs2)c2ccc(Cl)c(Cl)c2n1", "> 5.70"),
    ("Cc1c(Br)ccc2c(-n3cncn3)cc(N3CCC[C@H]3COCCC(=O)O)nc12", "> 5.70"),
    ("O=C(O)CCOC[C@H]1CC2(CC2)CN1c1cc(-n2cncn2)c2cc(Br)c(Cl)c(Cl)c2n1", "> 5.70"),
    ("O=C(O)CCOC[C@@H]1CCCN1c1cc(-c2cccc(F)c2)c2ccc(Cl)c(Cl)c2n1", "4.52 to 5.70"),
]

Now look at this entry.
Ask: Please give measured pIC50 of the following entry: O=C(O)CCOC[C@@H]1C[C@@H]2C[C@@H]2N1c1cc(-n2cncn2)c2cc(Br)c(Cl)c(Cl)c2n1
Reply: > 5.70
